# experimentalTarget: 5HT1B receptors (Rattus norvegicus, UniProt P28564)
# Construct: membranes of the rat striatum; from tissue; host or cells: rat striatum membranes
# Sequence (P28564 whole entry): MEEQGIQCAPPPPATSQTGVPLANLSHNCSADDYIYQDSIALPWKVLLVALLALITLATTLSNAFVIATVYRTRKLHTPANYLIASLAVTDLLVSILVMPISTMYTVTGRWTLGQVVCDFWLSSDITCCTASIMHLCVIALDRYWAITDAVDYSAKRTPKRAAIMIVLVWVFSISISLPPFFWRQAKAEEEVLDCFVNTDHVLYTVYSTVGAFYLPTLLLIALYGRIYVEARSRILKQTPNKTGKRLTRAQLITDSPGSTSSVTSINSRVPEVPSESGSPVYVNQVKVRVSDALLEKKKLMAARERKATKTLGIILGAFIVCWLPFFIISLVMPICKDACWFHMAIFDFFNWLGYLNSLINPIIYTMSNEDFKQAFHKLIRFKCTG
# method: Binding test: displacement of [^3 H]-5HT from membranes of the rat striatum (5HT1B)
reportedEndpoint: Ki (µM)
# number only, unit µM dropped from output

[Q] Which Ki is reported for this molecule? FC(F)(F)c1ccc(N2CCNCC2)nc1Cl [Compound 3]
[A] 0.1

----------
# experimentalTarget: 5HT1B receptors (Rattus norvegicus)
# Construct: membranes of the rat striatum; from tissue; host or cells: rat striatum membranes
# method: Binding test: displacement of [^3 H]-5HT from membranes of the rat striatum (5HT1B)
# measurementSetup: rat striatum membranes, [^3 H]-5HT; read-out: BINDING pKi 5HT1B (converted)
reportedEndpoint: Ki (nM)
# number only, unit nM dropped from output

[Q] Which Ki is reported for this compound? "FC(F)(F)c1ccc(N2CCNCC2)nc1"
[A] 501

[Q] "FC(F)(F)c1ccnc(N2CCNCC2)c1" ?
[A] 126

[Q] "FC(F)(F)c1cnc(N2CCNCC2)c(Cl)c1" ?
[A] 501

[Q] "FC(F)(F)c1cnc(N2CCNCC2)cc1C(F)(F)F" ?
[A] 398

Source listed as patent US4971969A.
